Test system: MCF7
Assay: Cell cycle arrest in human MCF7 cells assessed as accumulation in G2 phase at 5 times of antiproliferative IC50 incubated for 48 hrs by propidium iodide based flow cytometry (reference value: 16 %)
Type: functional
Measured Activity accompanies every entry in the list below.
// units = %; emit number, no label

Examples with answers:
COc1c(Br)c2c(c(OC)c1OC)-c1ccc(SC)c(=O)cc1[C@@H](NC(C)=O)CC2; 66
COc1c(Br)c2c(c(OC)c1OC)-c1ccc(OC)c(=O)cc1[C@@H](NC(C)=O)CC2; 60.8
COc1c(Br)c2c(c(OC)c1OC)-c1ccc(SC)c(=O)cc1[C@@H](NC(=O)C(C)C)CC2; 66.3

Specify Activity for COc1c(Br)c2c(c(OC)c1OC)-c1ccc(SC)c(=O)cc1[C@@H](NC(=O)c1ccccc1)CC2 and stop.
68.3

Indicate the recorded Activity value for this molecule: COc1cc2c(c(OC)c1OC)-c1ccc(OC)c(=O)cc1[C@@H](NC(C)=O)CC2
68.3

----------
Assay: Selectivity index, ratio of IC50 of mouse BALB/3T3 cells to IC50 of human LoVo/DX cells
Assay type: toxicity
Details: BALB/3T3 cells versus LoVo/DX cells, read-out: Ratio IC50
Overview of reported selectivity ratio across a group of compounds:
// no unit string in output, number only

Example entries and their recorded answers appear below.
CCN(CC)C(=O)N[C@H]1CCc2c(Br)c(OC)c(OC)c(OC)c2-c2ccc(SC)c(=O)cc21; 0.1
COc1c(Br)c2c(c(OC)c1OC)-c1ccc(SC)c(=O)cc1[C@@H](NC(=O)C(C)C)CC2; 0.3
CCCCCCCCCC(=O)N[C@H]1CCc2c(Br)c(OC)c(OC)c(OC)c2-c2ccc(SC)c(=O)cc21; 0.1

State, in one line, measured selectivity ratio of COc1c(Br)c2c(c(OC)c1OC)-c1ccc(SC)c(=O)cc1[C@@H](NC(=O)CCCCl)CC2
0.2

Fill in selectivity ratio for record COc1c(Br)c2c(c(OC)c1OC)-c1ccc(OC)c(=O)cc1[C@@H](NC(C)=O)CC2
0.1

Please give measured selectivity ratio of the following entry: COc1c(Br)c2c(c(OC)c1OC)-c1ccc(SC)c(=O)cc1[C@@H](N)CC2
1.8

Supply recorded selectivity ratio for COCC(=O)N[C@H]1CCc2c(Br)c(OC)c(OC)c(OC)c2-c2ccc(SC)c(=O)cc21 here.
0.2

Return value of selectivity ratio for input CCC(=O)N[C@H]1CCc2c(Br)c(OC)c(OC)c(OC)c2-c2ccc(SC)c(=O)cc21 , no commentary.
0.1

Please give the documented selectivity ratio of COc1c(Br)c2c(c(OC)c1OC)-c1ccc(SC)c(=O)cc1[C@@H](NC(=O)c1ccccc1)CC2
0.4

Look up and report measured selectivity ratio for this entry: COc1c(Br)c2c(c(OC)c1OC)-c1ccc(SC)c(=O)cc1[C@@H](NC(C)=O)CC2
0.8

----------
Assay: Cell cycle arrest in human ALL5 cells assessed as accumulation in subG1 phase at 5 times of antiproliferative IC50 incubated for 24 hrs by propidium iodide based flow cytometry (reference value: 10.5 %)
Format: functional
Here, each record is paired with measured Activity data.
Answer format: numeric, % implied, no suffix.

Specify reported Activity for the compound shown: COc1c(Br)c2c(c(OC)c1OC)-c1ccc(OC)c(=O)cc1[C@@H](NC(C)=O)CC2
17.1

Quote Activity reported for CCC(=O)N[C@H]1CCc2c(Br)c(OC)c(OC)c(OC)c2-c2ccc(SC)c(=O)cc21 please.
17.4

Check the records and state Activity for COc1cc2c(c(OC)c1OC)-c1ccc(OC)c(=O)cc1[C@@H](NC(C)=O)CC2
19.7

Hello, please tell me recorded Activity for this one: COc1c(Br)c2c(c(OC)c1OC)-c1ccc(SC)c(=O)cc1[C@@H](NC(C)=O)CC2
14.3

Look up and report measured Activity for this entry: COc1c(Br)c2c(c(OC)c1OC)-c1ccc(SC)c(=O)cc1[C@@H](NC(=O)c1ccccc1)CC2
16.5

Let me know recorded Activity for COc1cccc2c1C(=O)c1c(O)c3c(c(O)c1C2=O)C[C@@](O)(C(=O)CO)C[C@@H]3O[C@H]1C[C@H](N)[C@H](O)[C@H](C)O1 , thanks.
1.55

Give the value of Activity reported for the following: COCC(=O)N[C@H]1CCc2c(Br)c(OC)c(OC)c(OC)c2-c2ccc(SC)c(=O)cc21
17.1

Provide only the value of recorded Activity for COc1c(Br)c2c(c(OC)c1OC)-c1ccc(SC)c(=O)cc1[C@@H](NC(=O)C(C)C)CC2
18
